Target: bovine testes hyaluronidase (BTH) (Bos taurus, UniProt Q2YDK3)
Test: Morgan-Elson assay at pH […]
Format: biochemical
Conditions: read-out: IC50 [μM] / 3.5
Measurement name: IC50 (µM)
# output: bare number, implied unit µM

Prompt: Look up IC50: CCCCCCCCCCCCCCCC(=O)OC[C@H](O)[C@H]1OC(=O)C(O)=C1O
Completion: 8

* * *

Target: UniProtKB Q2YDK3
Sequence (Q2YDK3 36-553): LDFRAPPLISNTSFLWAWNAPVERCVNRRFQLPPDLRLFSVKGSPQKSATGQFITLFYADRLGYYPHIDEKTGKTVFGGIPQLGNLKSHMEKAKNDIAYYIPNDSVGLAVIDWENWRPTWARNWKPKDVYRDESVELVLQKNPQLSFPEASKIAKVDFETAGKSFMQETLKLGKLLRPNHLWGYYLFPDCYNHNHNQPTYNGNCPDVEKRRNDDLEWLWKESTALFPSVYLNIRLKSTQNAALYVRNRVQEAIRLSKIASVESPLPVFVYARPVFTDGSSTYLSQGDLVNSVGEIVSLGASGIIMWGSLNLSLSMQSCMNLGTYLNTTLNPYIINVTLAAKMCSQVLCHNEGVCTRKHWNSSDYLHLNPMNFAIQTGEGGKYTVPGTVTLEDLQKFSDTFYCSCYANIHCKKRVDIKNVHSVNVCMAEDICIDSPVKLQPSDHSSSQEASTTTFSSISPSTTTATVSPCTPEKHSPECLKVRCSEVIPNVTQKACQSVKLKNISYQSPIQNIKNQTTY
Test: stains-all assay at pH […] and Morgan-Elson assay at pH […]
Format: biochemical
Details: read-out: IC50 [μM] / pH7
Measurement name: IC50 (µM)
# output: bare number, implied unit µM

Prompt: Look up IC50: Oc1ccc(-c2[nH]c3ccccc3c2-c2ccccc2)cc1
Completion: 107
